Hey, just so you know, these numbers are from the nanobody polyreactivity screen of Harvey et al. (2022).

# assay_summary: yeast display, Sf9 membrane polyspecificity reagent, FACS + sequencing; frameworks hold sequencing errors
quantity: polyreactivity (PSR sort gate)

Known results for sequences:
QVQLVESGGGLVQAGGSLRLSCAASGITFRQYAMGWYRQAPGKEREFVAAISWIGGSTYYADSVKGRFTISRDTAKNTVYLQMNSLKPEDTAVYYCAAETFTDYDYWGQGTQVTVSS :: high polyreactivity
QVQLVESGGGLVQAGGSLRLSCAASGSTFSKYTMGWYRQAPGKERELVAAISRSGGRTYYADSVKGRFTISRDNAKNTVYLQMNSLKPEDTAVYYCATVVYVFGYSSPMYYWGQGTQVTVSS :: high polyreactivity
QVHLVESGGGLVQAGGSLRLSCAASGSIFEINAMGWYRQAPGKEWELVAAITGSGGSTHYADSVKGRFTISRDNAKNTVYLPMNSLNPEDTAVYYCAAVPRYQYGYWGQGTQVTVSS :: low polyreactivity
QVQLVESGGGLVQAGGSLRLSCAASGRTFLAYAMGWYRQAPGKERELVAAISSSGSTTYYADSVKGRFTISRDNAKNTVYLQMNSLKPEDTAVYYCAASNGYRSSYYRYDYWGQGTQVTVSS :: low polyreactivity
QVQLVESGGGLVQAGGSLRLSCAASGSIFYENDMGWYRQAPGKERELVAAISSGGTTNYADSVKGRFTISRDNAKNTVYLQMNSLKPEDTAVYYCAAEYPSVYYERFDYWGQGTQVTVSS :: low polyreactivity
QVQLVESGGGLVQPGGSLRLSCAASGSIFYGYTMGWYRQEPGKERELVAAIRKSGGSTNYADSVKWRFTISRDIAKNTVYLQMNSLKPEDTAVYYCAAAYYRGRGYFWGQGTQVTVSS :: high polyreactivity

Parameters: items (list). Returns: polyreactivity (PSR sort gate) for each item.
1. QVQLVESGGGLVQAGGSLRLSCAASGRIFLWYAMGWYRQAPGKERELVASITRSGVTTYYADSVKGRFTISRDNAKNTVYLQMNSLKPEDTAVYYCNKDFRGDAIKLDVNYWGQGTQVTVSS
2. QVQLVESGGGLVHAGGRLRLSCAASGSMFYPYAMGWYRQAPGKERELVAAISRSGGSTRYADSVKGRFTISRDHAQNTVYLQMNSLKPEDTAVYYCAVRVFYGVGLIGYYYWGQGSQVTVSS
3. QVQLVESGGGLVQAGGSLRLSCADSGSNFRTYVMGWYRQAPGNERDMVAAITNGISTNYADSVKGRFTISRDNAKNSVYLQMISMKPEDTAVYYCAAGFRSTYYTFRFGYWGQGTQVTVST
4. QVQLVESGGVLVQEGGSLSLSCTASRSIFLKYAMGWYRQAPGKERELVAAISSRDASTYYADSVKGRFSISRDNAKKSVYLQMNSLKPEDTAVYYCNVAQNYWAGLYDYWGQGTQVTVSS
5. QVQLVESGGGLVQAGGSLRLSCAASGSTFVDYAMGWYRQAPGKERELVAAMSSSGGSTYYADSVKGRFTISRDNAKNTVYLQMNSLKPEDTAVYYCAARYDRSSKRNYWGQGTQVTVSS

**Result**
["low polyreactivity", "high polyreactivity", "high polyreactivity", "high polyreactivity", "low polyreactivity"]

###

# assay_summary: yeast display, Sf9 membrane polyspecificity reagent, FACS + sequencing; frameworks hold sequencing errors
quantity: polyreactivity (PSR sort gate)

QVQLVESGGGLVQAGGSLRLSCAASGRTFFVYAMGWYRQAPGKERELVAAISRGGRTYYADSVKGRFTISRDNAKNTVYLQMNSLKPEDTAVYYCAAESWYQQGDYWGQGTQVTVSS :: low polyreactivity
QVQLVESGGGLVQAGGSLRLSCAASGFTFSSYAMGWYRQAPGKERELVAAITQSGGRTYYADSVKGRFTISRDNAKNTVYLQMNSLKPEDTADYYCAADVTLWYDYWGQGTQVTVSS :: low polyreactivity

###

# assay_summary: yeast display, Sf9 membrane polyspecificity reagent, FACS + sequencing; frameworks hold sequencing errors
quantity: polyreactivity (PSR sort gate)

QVQLVESGGGLVQAGGSLRLSCAASGFTFYYYAMGWYRQAPGKERELVAVITSGGNTYYADSVKGRFTISRDNAKNNVYLQMNSLKPEDTAVYYCAKDVSDPFYDPFEYWGQGTQVTVSS :: low polyreactivity
QVQLVESGGGLVQAGGSLRLSCAASGRTFSDYAMGWYRQAPGKERELVAAITSSGGSTYYADSVKGRFTISRDNAKNTVYLQMNSLKPEDTAVYYCAKVWYGDRNIDRYDYWGQGTQVTVSS :: high polyreactivity
QVQLVESGGGLVQAGGSLRLSCAASGSTYRIYAMGWYRQAPGKERELVAAITRSGGSTYYADSVKGRFTISRDNAKNTVYLQMNSMKPEDTAVYYCNRRGAYPAKYDYWGQGTQVTVSS :: high polyreactivity
QFQLVESGGGLDQAGGSLRLSCAASGSIFSYYDMGGDRQAPGKDRELVAGNSRGGSTNYADSVKGRFTISRDNAKKTVYLQMNSLKPEDTAVYYCNADQSSRTYPFRLSRRSWLYGYWGQGTQVTVSS :: low polyreactivity
QVQLVESGGGIVQAGGRLRLRCAASGSNFYYNAMGWYRQAPGKERELVAAITWSGGRTYYADSVKGRFTISRDNAKNTVYLQMNSLKPEDTAVYYCNARYRASRYNYWGQGTQVTVSS :: high polyreactivity

Parameters: items (list). Returns: polyreactivity (PSR sort gate) for each item.
1. QVQLVESGGGLFQAGGSLRISCAASGSTFLVNAMGWYRQAPGKEREFVAAITWTGGSTYYADSVKGRFTISRDNAKNSVYLQMNRLKPEDTAVYYCNTDWTYYGDQYRRGGYWGQGTQVTVSS
2. QVQLQESGGGLEQAGGSLRLSCAASGYISDIGTMGWYRQAPGKEREFVATLVVGSTTNYADSVKGRFTISRDNAKNTVYLQPESGRYRGVLLRGWLLAVGKFTYWGQGTQETVSS
3. QVQLVESGGGLVQAGGSLRLSCAASGSTFYSYAMGWYRQAPGKERELVAAITSGGSTNYADSVKGRFTISRDNAKNTVYLQMNSLKPEDTAVYYCAAVVSTVDGMEYWGQGTQVTVSS
4. QVQLVESGGGLVQAGGSLRLSCAASGSTFQYYAMGWSRQAPGKERELVAAISYGGSRTYYADSVKGRFTISRDNAKNTVYLQMNSLKPEDTAVYYCAKEKYRALAPYYYWGQGTQVTVSS
5. QVQLVESGGGLVQAGGSLRLSCAASGLIFVGYAMGWYRQAPGKERELVAAITSGGSTKYADSVKGRFTISRDNAKNTVYLQMNSLKPEDTAVYYCAASGWRNWWSARNYYWGQGTQVTVSS
6. QVHLVESGGGLVQAGGSLRLSCAASGSTVTLYAMGWYRQAPGKERELVASITWSGSTYADSVKGRFTISRDNAKNTVYLQMNSLKPEDTAVYYCNTDPRSVVGWYDYWGQGTQVTVSS

**Result**
["low polyreactivity", "low polyreactivity", "low polyreactivity", "high polyreactivity", "low polyreactivity", "low polyreactivity"]

###

# assay_summary: yeast display, Sf9 membrane polyspecificity reagent, FACS + sequencing; frameworks hold sequencing errors
quantity: polyreactivity (PSR sort gate)

Known results for sequences:
QVKLVESGGVLVQAGGSLRLSCADSGRTFYPYAMGWYRQGPGKDRELVAAISRSGGSTYADSVKGRFTISRDNAKYTVYLQMNSLKPEDTAVYYCATRRKTYLSFNYDYWGQGTQVTVSS :: low polyreactivity
QVQLVESGGGLVQAGGSLRLSCAASGSTFRIYAMRSYRQAPGKERELGARISWNGGRTYYADSVKGRFTISRVNAKNTVYLQMNSLKPEDTAGYYCNALVPPGYDYWGQGTQVSVSS :: high polyreactivity
QVQLVESGGGLVQAGGSLRLSCAASGITFYRYAMGWYRQAPGKERELVAAISASDGSTYYADSVKGRFTISRDHAKNTVYLQMNSLKPEDTAVYYCNARKGYSYGHWGQGTQVTVSS :: high polyreactivity
KVQVVESGGGVVQAGGTLRLSCAASGSIAGNAMGWYRQAPGKERELVAAITFRGSGTYYADSVKGRFTISRDNAKNTVYLQINSLKPEDTAVYYCNAYRRGLSGYGYWGQGTQVTVSS :: high polyreactivity
QVQHEESAGGLVQAGGSLRLSCAASGSTIHPYSMGWSRQAPGKERELVAAITWGGGSTYYADSVKGRFTISRDNAKNTVYLQMNSLKPEDTAVYYCNSYTLYWPDYDYWGQGTQVTVSS :: low polyreactivity
QVQLVESGGGLVQAGGSLRLSCAASGRTFYYYAMGWYRQAPGKERELVARISYSGSNTYYADSVKGRFTISRDNAKNTVYLQMNSLKPEETAVYYCAAGYLVWRDSATLDYWGQGTQVTVSS :: high polyreactivity
QVQLVESGGGLVQAGGSLRLSCAASGFSFSRYAMGWYRQAPGKDRELVATITSGGGGTYYADSVKGRFTISRDNAKNTVYLQKNSLKPEDTAVYYCAKYSPYYRNGLDYWGHGTQVTVSS :: high polyreactivity
QVQLVESGGGLVQAGGSLRLSCAASGFIFYPYAMGWYRQAAGKERELVASIRRSTASTYYADSVKGRFTISRDNAKNTVYLQMNSLKPEDTAVYYCAARYRSYPKEYDYWGQGTEVTVSS :: high polyreactivity

Parameters: items (list). Returns: polyreactivity (PSR sort gate) for each item.
1. QVQLVESGGVLVQAGGSLRLSCAASGLTFQPYVMGWYRHAPGKERELVAAISVRTTRTYYADSVKGRFTISRDNAKNTVYLQMNSLKPEDTAVYYCATRGDYWSPYEDDDYWGQGTQLTVSS
2. QVQLVESGGGLVQAGGSLRLSCAASGFIFVDYAMGWYRQAPGTERELVAAITSSGDRTYYADSVKGRFTISRDNAKNTVYLQMNSLKPEDTAVYYCNADWSTAWYTSYDYWGQGTQVTVSS
3. QVQLVESGGGLVQAGGSLRLSCAASGNIFRINGMGWYRQAPGKERELVAAISFSGGSTYYADSVKGRFTISRDNAKNTVYLQMNSLKPEDTAVYYCNADSTKGWYHDYDYWGQGTQVTVSS
4. QVQLVESGGGLVQAGGSLRLSCAASGRTFAAYTMGWYSQAPGKERELVAAIRRSGSSTYYADSVKGRFTISRDNAKNTVYLQMNSLKPEDTAVYYCARVGRFTGGGYWGQGTQVTVSS

**Result**
1: low polyreactivity; 2: low polyreactivity; 3: low polyreactivity; 4: high polyreactivity
